For each entry below, report its cell viability value.
# System: HepG2
# Method: cell viability relative to DMSO; higher = less toxic
# Condition notes: 72 h; 1000 nM
Write the value in % as a bare number.

// cell viability value for O=CN1CCC(C(=O)NCCN2CCC(=C3c4ccccc4C=Cc4ccccc43)CC2)CC1 [AT-1015] : 102

// cell viability value for Oc1cc(O)cc(/C=C/c2ccc(O)c(O)c2)c1 [piceatannol] : 92.7

// cell viability value for O=C(NCC(=O)N1CC[C@H](N[C@H]2CC[C@@](O)(c3ccc(-c4ncccn4)cn3)CC2)C1)c1cccc(C(F)(F)F)c1 : 97.4

// cell viability value for N#Cc1ncccn1 [2-cyanopyrimidine] : 93.6

// cell viability value for COc1ccccc1N1CCN(CCCNc2cc(=O)n(C)c(=O)n2C)CC1 [urapidil] : 95.8

// cell viability value for C[C@@H]1C[C@H]2[C@@H]3C[C@H](F)C4=CC(=O)C=C[C@]4(C)[C@@]3(F)[C@@H](O)C[C@]2(C)[C@@]1(O)C(=O)CO [flumethasone] : 91.2

// cell viability value for CC1(C)CCC(C)(C)c2cc(Cn3cccn3)c(/C=C/c3ccc(C(=O)O)cc3)cc21 [palovarotene] : 113

// cell viability value for O=C1c2ccccc2S(=O)(=O)N1CCCCN1CCN(c2ncccn2)CC1 [ipsapirone] : 101

// cell viability value for CCN1CCC[C@H]1CNC(=O)c1c(O)c(Cl)cc(Cl)c1OC [raclopride] : 101

// cell viability value for C[n+]1ccccc1C=NO [pralidoxime] : 101

// cell viability value for COc1ccc(NS(=O)(=O)c2ccc(N)cc2)nn1 [sulfamethoxypyridazine] : 97.2

// cell viability value for COc1ccc2cc(-c3nc(-c4ccc([S+](C)[O-])cc4)[nH]c3-c3ccncc3)ccc2c1 (centres undefined) [tie2-kinase-inhibitor] : 91.7

// cell viability value for COc1ccc2cc3[n+](cc2c1OC)CCc1cc2c(cc1-3)OCO2 [berberine] : 92.1

// cell viability value for O=C1C(Cl)=C(NCCN2CCOCC2)C(=O)c2ncccc21 : 86.1

// cell viability value for O=C(O)CCCN1C(=O)c2cccc3cccc(c23)C1=O [isodibut] : 105

// cell viability value for CCS(=O)(=O)N1CC(CC#N)(n2cc(-c3ncnc4[nH]ccc34)cn2)C1 [baricitinib] : 107

// cell viability value for CN1CCN(CC/C=C2/c3ccccc3Sc3ccc(S(=O)(=O)N(C)C)cc32)CC1 [thiothixene] : 87.6

// cell viability value for O=S1(=O)c2cccc3cccc(c23)N1CCCN1CCN(c2ccc(F)cc2)CC1 [fananserin] : 94

// cell viability value for CCCCCCCCCC(=O)OCCN1CCN(CCCN2c3ccccc3Sc3ccc(C(F)(F)F)cc32)CC1 [fluphenazine-decanoate] : 93.7

// cell viability value for C[C@H](Nc1ncnc2[nH]cnc12)c1nc2ccc(F)cc2c(=O)n1-c1ccccc1 [acalisib] : 93.7

// cell viability value for O=C(/C=C/c1ccc(O)cc1)c1ccc(O)cc1O [isoliquiritigenin] : 101

// cell viability value for CCOc1ccccc1C(=O)O [2-ethoxybenzoic-acid] : 101

// cell viability value for COc1ccc(CC(=O)NC(/N=C(\NC#N)Nc2cccc3ncccc23)C(C)(C)C)cc1OC (centres undefined) : 97.5

// cell viability value for C[C@@H]1CC(=O)NN=C1c1ccc(NN=C(C#N)C#N)cc1 [levosimendan] : 99.6

// cell viability value for Cc1c(C2CCN(CCc3ccccc3)CC2)noc1-c1ccc(Cl)cc1 : 95.8

// cell viability value for CC(=O)N[C@H]1[C@H]([C@H](O)[C@H](O)CO)OC(C(=O)O)=C[C@@H]1NC(=N)N [zanamivir] : 110

// cell viability value for C=C1C(=O)O[C@@H]2/C=C(\C)CC/C=C(\C)CC[C@@H]12 [costunolide] : 97.3

// cell viability value for OCCn1cc(-c2cnc3nnn(Cc4ccc5ncccc5c4)c3n2)cn1 : 97.7

// cell viability value for COc1ccc(CCN(C)CCc2ccc(OC)c(OC)c2)cc1OC [YS-035] : 96.3
